Give IC50 for every item shown.
ASSAY_SYSTEM: c-Kit(V654A) (Homo sapiens, UniProt P10721, V654A)
Construct: amino acids 544-end containing the V654A mutation; GST (N)
Sequence (P10721 544-976 V654A): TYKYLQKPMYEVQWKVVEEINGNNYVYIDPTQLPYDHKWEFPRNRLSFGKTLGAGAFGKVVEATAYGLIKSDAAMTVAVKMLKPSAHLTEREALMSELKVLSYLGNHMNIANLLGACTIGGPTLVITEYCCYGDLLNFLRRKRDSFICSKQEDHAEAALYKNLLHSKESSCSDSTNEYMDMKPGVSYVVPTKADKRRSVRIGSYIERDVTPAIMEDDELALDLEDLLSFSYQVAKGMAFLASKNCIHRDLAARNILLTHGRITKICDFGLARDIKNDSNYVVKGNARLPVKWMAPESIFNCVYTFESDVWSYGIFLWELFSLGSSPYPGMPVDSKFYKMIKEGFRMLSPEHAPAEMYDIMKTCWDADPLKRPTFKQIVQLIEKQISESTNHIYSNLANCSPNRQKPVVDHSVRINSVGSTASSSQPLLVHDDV
MEASUREMENT_DESCRIPTION: c-Kit(V654A) assay
PARTICULARS: recombinant human c-Kit aa 544-end, 200 μM ATP, 1.4E-06 means 1.4×10^−6, read-out: Inhibition (IC50) of c-KIT (V654A)
Method: c-Kit(V654A) (N-terminal GST-tagged, recombinant human c-Kit, amino acids 544-end containing the V654A mutation) is incubated with 8 mM MOPS pH 7.0, 0.2 mM EDTA, 250 μM GGMEDIYEFMGGKKK, 10 mM MgAcetate and [gamma-33P-ATP] (specific activity approx. 500 cpm/pmol, concentration 200 μM). The reaction is initiated by the addition of the MgATP mix. After incubation for 40 minutes at room temperature, the reaction is stopped by the addition of 3% phosphoric acid solution. […]
Answers are plain numbers, in nM.

Worked examples follow.
| RECORD_SMILES | UNITS_SYMBOL | IC50 |
| --- | --- | --- |
| CO[C@H]1CCN(S(=O)(=O)c2ccc(-n3cc(-c4cc5cc(Cl)ccc5[nH]c4=O)nn3)cc2)C1 | nM | 11 |
| CO[C@@H]1CCCN(C(=O)c2ccc(-n3cc(-c4cc5cc(F)ccc5[nH]c4=O)nn3)cc2)C1 | nM | 49 |
| CN1CCC(Cc2ccc(-n3cc(-c4cc5cc(Cl)ccc5[nH]c4=O)nn3)cc2)CC1 | nM | 17 |
| O=C(NCCO)c1ccc(-n2cc(-c3cc4ccccc4[nH]c3=O)nn2)cc1 | nM | 38 |

Report IC50 for every entry below.
1. O=C(c1ccc(-n2cc(-c3cc4cc(F)ccc4[nH]c3=O)nn2)cc1)N1CCC1
2. O=C(c1ccc(-n2cc(-c3cc4cc(F)cnc4[nH]c3=O)nn2)cc1)N1CCNCC1

[77, 73]

Record IC50 for all entries; do not skip any.
1. O=c1[nH]c2ccc(F)cc2cc1-c1cn(-c2ccc(N3CCCS3(=O)=O)cc2)nn1
2. O=C(Cn1ccc2cc(-n3cc(-c4cc5c(F)cc(F)cc5[nH]c4=O)nn3)ccc21)N1CCNCC1

1. 33
2. 11

* * *

ASSAY_SYSTEM: c-Kit(V654A) (Homo sapiens, UniProt P10721, V654A)
Construct: amino acids 544-end containing the V654A mutation; GST (N)
MEASUREMENT_DESCRIPTION: c-Kit(V654A) assay
PARTICULARS: recombinant human c-Kit aa 544-end, 200 μM ATP, 1.4E-06 means 1.4×10^−6, read-out: Inhibition (IC50) of c-KIT (V654A)
Description: c-Kit(V654A) (N-terminal GST-tagged, recombinant human c-Kit, amino acids 544-end containing the V654A mutation) is incubated with 8 mM MOPS pH 7.0, 0.2 mM EDTA, 250 μM GGMEDIYEFMGGKKK, 10 mM MgAcetate and [gamma-33P-ATP] (specific activity approx. 500 cpm/pmol, concentration 200 μM). The reaction is initiated by the addition of the MgATP mix. After incubation for 40 minutes at room temperature, the reaction is stopped by the addition of 3% phosphoric acid solution. […]
Kindly supply the reported pIC50 values for the records listed here.
Numbers only, as −log10 of the molar value.

Before answering, review these 2 worked examples.
| MOLECULE | pIC50 |
| --- | --- |
| O=C(c1cccc(-n2cc(-c3cc4cc(F)ccc4[nH]c3=O)nn2)c1)N1CCNCC1 | 7.47 |
| O=C(c1ccc(-n2cc(-c3cc4ccc(Br)cc4[nH]c3=O)nn2)cc1)N1CCOCC1 | 7.72 |

// each listed molecule needs a value for pIC50
1. O=C(c1ccc(-n2cc(-c3cc4cc(F)ccc4[nH]c3=O)nn2)cc1)N1CCCC2(COC2)C1
2. O=C(c1ccc(-n2cc(-c3cc4cc(F)ccc4[nH]c3=O)nn2)cc1)N1CCC(CO)C1 (centres unmarked)
3. O=C(COc1ccc(-n2cc(-c3cc4cc(F)ccc4[nH]c3=O)nn2)cc1)N1CCNCC1
4. COCCO[C@H]1CCN(C(=O)c2ccc(-n3cc(-c4cc5cc(Cl)ccc5[nH]c4=O)nn3)cc2)C1
5. O=C(O)c1ccc(-n2cc(-c3cc4cccnc4[nH]c3=O)nn2)cc1

7.13
7.62
8.42
7.24
6.33

Which pIC50 is listed for O=C(c1ccc(-n2cc(-c3cc4cc(F)ccc4[nH]c3=O)nn2)cc1)N1CCOC[C@@H]1CO ? 7.28

* * *

ASSAY_SYSTEM: c-Kit(V654A) (Homo sapiens, UniProt P10721, V654A)
Construct: amino acids 544-end containing the V654A mutation; GST (N)
MEASUREMENT_DESCRIPTION: c-Kit(V654A) assay
PARTICULARS: recombinant human c-Kit aa 544-end, 200 μM ATP, 1.4E-06 means 1.4×10^−6, read-out: Inhibition (IC50) of c-KIT (V654A)
Task for the reader: assign each of the following compounds its reported pIC50.
One number for each entry, as −log10 of the molar value.

Consider the worked cases shown below.
| COMPOUND | REPORTED_ENDPOINT | MEASURED_VALUE |
| --- | --- | --- |
| CC(=O)O[C@H]1CCN(C(=O)c2ccc(-n3cc(-c4cc5cc(F)ccc5[nH]c4=O)nn3)cc2)C1 | pIC50 | 8.02 |
| CN(C)[C@@H]1CCCN(C(=O)c2ccc(-n3cc(-c4cc5cc(F)c(F)cc5[nH]c4=O)nn3)cc2)C1 | pIC50 | 7.40 |

Batch of 2 compounds: report pIC50 for each.
1. CC(=O)N1CCN(CCOc2ccc(-n3cc(-c4cc5cc(F)c(F)cc5[nH]c4=O)nn3)cc2)CC1
2. CN1CCN(C(=O)c2ccc(-n3cc(-c4cc5c(F)cc(F)cc5[nH]c4=O)nn3)cc2)CC1=O

[7.48, 8.05]

Your task in this section: give pIC50 for each listed record.
1. CCN(CC)CCOC1CCN(C(=O)c2ccc(-n3cc(-c4cc5cc(F)ccc5[nH]c4=O)nn3)cc2)C1 (centres unmarked)
2. CN1CCN(C(=O)c2ccc(-n3cc(-c4cc5c(F)cc(F)cc5[nH]c4=O)nn3)cc2)CC1
3. CN1CCN(C(=O)c2ccc(-n3cc(-c4cc5c(F)c(F)ccc5[nH]c4=O)nn3)cc2)CC1
4. CO[C@@H]1CN(C(=O)c2ccc(-n3cc(-c4cc5cc(Cl)ccc5[nH]c4=O)nn3)cc2)C[C@H]1OC

1: 7.44; 2: 7.96; 3: 7.59; 4: 7.30

* * *

So I've got a bunch of compounds here, and I need their IC50 values.
ASSAY_SYSTEM: c-Kit(V654A) (Homo sapiens, UniProt P10721, V654A)
Construct: amino acids 544-end containing the V654A mutation; GST (N)
MEASUREMENT_DESCRIPTION: c-Kit(V654A) assay
PARTICULARS: recombinant human c-Kit aa 544-end, 200 μM ATP, 1.4E-06 means 1.4×10^−6, read-out: Inhibition (IC50) of c-KIT (V654A)
One number for each entry, in nM.

Some solved entries appear below for comparison.
| COMPOUND | IC50 (nM) |
| --- | --- |
| O=C(c1ccc(-n2cc(-c3cc4cc(F)ccc4[nH]c3=O)nn2)cc1)N1CCC(N2CCCC2)C1 (stereo not drawn) | 20 |
| O=C(c1ccc(-n2cc(-c3cc4cc(F)ccc4[nH]c3=O)nn2)cc1)N1CCOC2(COC2)C1 | 90 |
| CC(=O)N(C)c1ccc(-n2cc(-c3cc4cc(F)ccc4[nH]c3=O)nn2)cc1 | 94 |
| O=C(COc1ccc(-n2cc(-c3cc4cc(F)c(F)cc4[nH]c3=O)nn2)cc1)N1CCNCC1 | 14 |
| O=C(c1ccc(-n2cc(-c3cc4cc(F)c(F)cc4[nH]c3=O)nn2)cc1)N1CCC(OCCN2CCOCC2)C1 (stereo not drawn) | 200 |

State the recorded IC50 for every item in the following list.
1. COC[C@@H]1CCN(C(=O)c2ccc(-n3cc(-c4cc5cc(F)c(F)cc5[nH]c4=O)nn3)cc2)C1
2. CN1CCN(C(=O)c2ccc(-n3cc(-c4cc5cc(F)cnc5[nH]c4=O)nn3)cc2)CC1
3. Cn1cc(C2CCCN2C(=O)c2ccc(-n3cc(-c4cc5cc(F)ccc5[nH]c4=O)nn3)cc2)cn1 (stereo not drawn)
4. CO[C@@H]1CCCN(C(=O)c2ccc(-n3cc(-c4cc5cc(F)c(F)cc5[nH]c4=O)nn3)cc2)C1
5. Cc1cc2[nH]c(=O)c(-c3cn(-c4ccc(C(=O)N5CCN(C)CC5)cc4)nn3)cc2cc1F
6. O=C(c1ccc(-n2cc(-c3cc4cc(Cl)ccc4[nH]c3=O)nn2)cc1)N1CCC(F)(F)C1

1: 180; 2: 24; 3: 5.6; 4: 230; 5: 72; 6: 16
